I'd appreciate it if you could supply pIC50 values for the items below.
- Test system: Leishmania donovani
- PROTOCOL_TEXT: AntiLeishmania activity L. donovani (axenic) IC50 (uM)
- Type: functional, organism-based
# reply with the number alone; pIC50 is -log10 of concentration in mol/L

Let me check: `Clc1ccc(Cl)c(CO[C@H]2CCCC[C@@H]2n2ccnc2)c1` , system Leishmania donovani, measured pIC50 is 4.81

Let me check: `c1ccc(Oc2ccc(-c3cc(CN4CCOCC4)[nH]n3)cc2)cc1` , system Leishmania donovani, measured pIC50 is 5.01

Let me check: `O=C(Nc1c(O)cccc1-c1nc2c(C(=O)O)cccc2o1)c1cc(-c2ccccc2)on1` , system Leishmania donovani, measured pIC50 is 6.24

Let me check: `Cc1nc(-c2ccccn2)nc(N(C)CCc2ccccc2)c1Cl` , system Leishmania donovani, measured pIC50 is 7.70

Let me check: `O=C(Nc1ccccc1-c1nc2c(C(=O)O)cccc2o1)c1ccccc1` , system Leishmania donovani, measured pIC50 is 6.40

Let me check: `c1ccc(Oc2ccc(-c3cc(N4CCOCC4)[nH]n3)cc2)cc1` , system Leishmania donovani, measured pIC50 is 5.41

Let me check: `COc1ccc(C(=N)N)cc1-c1cn(-c2ccc(C(=N)N)cc2)nn1` , system Leishmania donovani, measured pIC50 is 4.84

Let me check: `Clc1cccc(CO[C@H]2CCc3ccccc3[C@@H]2n2ccnn2)c1` , system Leishmania donovani, measured pIC50 is 5.18

Let me check: `CC(C)(C)OC(=O)N1CCN(c2cc(-c3ccc(Oc4ccccc4)cc3)n[nH]2)CC1` , system Leishmania donovani, measured pIC50 is 5.88

Let me check: `FC(F)(F)c1cc(NCCc2ccccc2)nc(-c2ccccn2)n1` , system Leishmania donovani, measured pIC50 is 6.60

Let me check: `COC(=O)c1cccc2oc(-c3cccc(OC)c3NC(=O)c3cc(-c4ccccc4)on3)nc12` , system Leishmania donovani, measured pIC50 is 5.40

Let me check: `Cc1nc(-c2ccccn2)nc(NCCc2ccc(S(C)(=O)=O)cc2)c1Cl` , system Leishmania donovani, measured pIC50 is 5.69

Let me check: Cc1nc(-c2ccccn2)nc(N2CCC(Cc3ccccc3)C2)c1Cl (centres undefined) , system Leishmania donovani, measured pIC50 is 7.52

====

- Tested on: Mycobacterium tuberculosis
- PROTOCOL_TEXT: AntiMycobacterium tuberculosis activity 2-week Alamar Blue 7H9/cholesterol/BSA/Tx MIC (uM)
- Format: functional
- ASSAY_SETUP: 336 h
I'd appreciate it if you could supply MIC values for the items below.

Notebook: `CCOC(=O)c1cc(-c2csc(Nc3c(C)cc(C)cc3C)n2)on1` , MIC read as 3.13 µM

Notebook: `COc1cc(Br)cc2cc(C(=O)Nc3cccc(C(F)(F)F)c3)c(=O)oc12` , MIC read as 12.5 µM

Notebook: `COc1cccc(NC(=O)c2c(NC(=O)c3cccnc3)sc3c2CCC3)c1` , MIC read as > 50 µM

Notebook: `CNc1snc(C)c1C(=O)NCCOc1ccc(OC)cc1` , MIC read as 3.13 µM

Notebook: `CCc1ccc([C@@H]2C[C@H](C(F)(F)F)n3ncc(C(=O)NCc4ccc(OC)cc4)c3N2)cc1` , MIC read as 0.39 µM
